The measurements presented in this section are drawn from ChEMBL document CHEMBL1138564.

Tested on: Aspergillus niger
Assay procedure: Antimicrobial activity against Aspergillus niger NCIM 902 at 500 ug/disk after 72 hrs by disk diffusion method
Assay type: functional
Study conditions: NCIM 1196, 72 h, in the assay text read “NCIM 1196” for “NCIM 902”, read-out: DIZ
Property: zone of inhibition at 500 µg/disc
Answer shape: numeric part, then the unit.

Lab note: measured zone of inhibition at 500 µg/disc of CC1(C)CC(=O)C2=C(C1)Nc1c(ccc3ccccc13)C2c1ccc(O)cc1 (centres undefined) was 8 mm

Lab note: measured zone of inhibition at 500 µg/disc of O=C1CCCC2=C1C(c1ccc(Cl)cc1)c1ccc3ccccc3c1N2 (centres undefined) was 8 mm

Lab note: measured zone of inhibition at 500 µg/disc of O=C1CCCC2=C1C(c1cccc([N+](=O)[O-])c1)c1ccc3ccccc3c1N2 (centres undefined) was 7 mm

Lab note: measured zone of inhibition at 500 µg/disc of O=C1CCCC2=C1C(c1ccc(O)cc1)c1ccc3ccccc3c1N2 (centres undefined) was 9 mm

###

Test system: Aspergillus parasiticus
Assay procedure: Antimicrobial activity against Aspergillus parasiticus NCIM 904 at 500 ug/disk after 72 hrs by disk diffusion method
Assay type: functional
Study conditions: NCIM 904, 72 h, read-out: DIZ
Property: zone of inhibition at 500 µg/disc (mm)
Respond numerically; units are mm and should not be typed.

Lab note: measured zone of inhibition at 500 µg/disc of CC1(C)CC(=O)C2=C(C1)Nc1c(ccc3ccccc13)C2c1cccc([N+](=O)[O-])c1 (centres undefined) was 10

Lab note: measured zone of inhibition at 500 µg/disc of CC1(C)CC(=O)C2=C(C1)Nc1c(ccc3ccccc13)C2c1ccccc1O (centres undefined) was 10

Lab note: measured zone of inhibition at 500 µg/disc of CC1(C)CC(=O)C2=C(C1)Nc1c(ccc3ccccc13)C2c1ccc(Cl)cc1 (centres undefined) was 12

Lab note: measured zone of inhibition at 500 µg/disc of CC1(C)CC(=O)C2=C(C1)Nc1c(ccc3ccccc13)C2c1ccc(O)cc1 (centres undefined) was 12

Lab note: measured zone of inhibition at 500 µg/disc of O=C1CCCC2=C1C(c1ccccc1Cl)c1ccc3ccccc3c1N2 (centres undefined) was 8

Lab note: measured zone of inhibition at 500 µg/disc of O=C1CCCC2=C1C(c1ccccc1O)c1ccc3ccccc3c1N2 (centres undefined) was 9

Lab note: measured zone of inhibition at 500 µg/disc of CC1(C)CC(=O)C2=C(C1)Nc1c(ccc3ccccc13)C2c1ccccc1Cl (centres undefined) was 8

Lab note: measured zone of inhibition at 500 µg/disc of O=C1CCCC2=C1C(c1cccc(Cl)c1)c1ccc3ccccc3c1N2 (centres undefined) was 12

Lab note: measured zone of inhibition at 500 µg/disc of O=C1CCCC2=C1C(c1ccc(Cl)cc1)c1ccc3ccccc3c1N2 (centres undefined) was 10

Lab note: measured zone of inhibition at 500 µg/disc of O=C1CCCC2=C1C(c1ccccc1)c1ccc3ccccc3c1N2 (centres undefined) was 7

Lab note: measured zone of inhibition at 500 µg/disc of CC1(C)CC(=O)C2=C(C1)Nc1c(ccc3ccccc13)C2c1ccccc1 (centres undefined) was 7

Lab note: measured zone of inhibition at 500 µg/disc of O=C1CCCC2=C1C(c1cccc([N+](=O)[O-])c1)c1ccc3ccccc3c1N2 (centres undefined) was 11

Lab note: measured zone of inhibition at 500 µg/disc of CC1(C)CC(=O)C2=C(C1)Nc1c(ccc3ccccc13)C2c1cccc(Cl)c1 (centres undefined) was 11

Lab note: measured zone of inhibition at 500 µg/disc of O=C1CCCC2=C1C(c1ccc(O)cc1)c1ccc3ccccc3c1N2 (centres undefined) was 12

###

Please provide measured zone of inhibition at 500 µg/disc for the entries that follow.
System: Trichoderma viride
Assay procedure: Antimicrobial activity against Trichoderma viride NCIM 1195 at 500 ug/disk after 72 hrs by disk diffusion method
Assay type: functional
Study conditions: NCIM 1195, 72 h, read-out: DIZ
Respond numerically; units are mm and should not be typed.

Value sought: zone of inhibition at 500 µg/disc, system Trichoderma viride, item CC1(C)CC(=O)C2=C(C1)Nc1c(ccc3ccccc13)C2c1ccccc1Cl (stereo not given) . Result: 7

Value sought: zone of inhibition at 500 µg/disc, system Trichoderma viride, item CC1(C)CC(=O)C2=C(C1)Nc1c(ccc3ccccc13)C2c1ccccc1O (stereo not given) . Result: 10

Value sought: zone of inhibition at 500 µg/disc, system Trichoderma viride, item O=C1CCCC2=C1C(c1ccccc1)c1ccc3ccccc3c1N2 (stereo not given) . Result: 11

Value sought: zone of inhibition at 500 µg/disc, system Trichoderma viride, item CC1(C)CC(=O)C2=C(C1)Nc1c(ccc3ccccc13)C2c1ccc(Cl)cc1 (stereo not given) . Result: 7

Value sought: zone of inhibition at 500 µg/disc, system Trichoderma viride, item CC1(C)CC(=O)C2=C(C1)Nc1c(ccc3ccccc13)C2c1ccccc1 (stereo not given) . Result: 9

Value sought: zone of inhibition at 500 µg/disc, system Trichoderma viride, item O=C1CCCC2=C1C(c1cccc(Cl)c1)c1ccc3ccccc3c1N2 (stereo not given) . Result: 8

Value sought: zone of inhibition at 500 µg/disc, system Trichoderma viride, item CC1(C)CC(=O)C2=C(C1)Nc1c(ccc3ccccc13)C2c1ccc(O)cc1 (stereo not given) . Result: 10

Value sought: zone of inhibition at 500 µg/disc, system Trichoderma viride, item O=C1CCCC2=C1C(c1ccccc1O)c1ccc3ccccc3c1N2 (stereo not given) . Result: 9

Value sought: zone of inhibition at 500 µg/disc, system Trichoderma viride, item O=C1CCCC2=C1C(c1ccc(O)cc1)c1ccc3ccccc3c1N2 (stereo not given) . Result: 10

Value sought: zone of inhibition at 500 µg/disc, system Trichoderma viride, item O=C1CCCC2=C1C(c1cccc([N+](=O)[O-])c1)c1ccc3ccccc3c1N2 (stereo not given) . Result: 9

###

Test system: Escherichia coli
Assay procedure: Antimicrobial activity against Escherichia coli NCIM 2065 at 1000 ug/disk after 24 hrs by disk diffusion method
Assay type: functional
Study conditions: NCIM 2065, 24 h, read-out: DIZ
Property: zone of inhibition at 1000 µg/disc (mm)
Respond numerically; units are mm and should not be typed.

Lab note: measured zone of inhibition at 1000 µg/disc of CC1(C)CC(=O)C2=C(C1)Nc1c(ccc3ccccc13)C2c1ccccc1 (stereo not given) was 10

Lab note: measured zone of inhibition at 1000 µg/disc of CC1(C)CC(=O)C2=C(C1)Nc1c(ccc3ccccc13)C2c1cccc(Cl)c1 (stereo not given) was 8

Lab note: measured zone of inhibition at 1000 µg/disc of CC1(C)CC(=O)C2=C(C1)Nc1c(ccc3ccccc13)C2c1ccccc1O (stereo not given) was 8

Lab note: measured zone of inhibition at 1000 µg/disc of CC1(C)CC(=O)C2=C(C1)Nc1c(ccc3ccccc13)C2c1ccc(Cl)cc1 (stereo not given) was 9

Lab note: measured zone of inhibition at 1000 µg/disc of O=C1CCCC2=C1C(c1cccc(Cl)c1)c1ccc3ccccc3c1N2 (stereo not given) was 9

Lab note: measured zone of inhibition at 1000 µg/disc of O=C1CCCC2=C1C(c1ccc(O)cc1)c1ccc3ccccc3c1N2 (stereo not given) was 9

Lab note: measured zone of inhibition at 1000 µg/disc of O=C1CCCC2=C1C(c1ccc(Cl)cc1)c1ccc3ccccc3c1N2 (stereo not given) was 8

Lab note: measured zone of inhibition at 1000 µg/disc of O=C1CCCC2=C1C(c1cccc([N+](=O)[O-])c1)c1ccc3ccccc3c1N2 (stereo not given) was 12

Lab note: measured zone of inhibition at 1000 µg/disc of O=C1CCCC2=C1C(c1ccccc1Cl)c1ccc3ccccc3c1N2 (stereo not given) was 8

Lab note: measured zone of inhibition at 1000 µg/disc of CC1(C)CC(=O)C2=C(C1)Nc1c(ccc3ccccc13)C2c1ccccc1Cl (stereo not given) was 8

###

System: Aspergillus fumigatus
Assay procedure: Antimicrobial activity against Aspergillus fumigatus NCIM 902 at 1000 ug/disk after 72 hrs by disk diffusion method
Assay type: functional
Study conditions: NCIM 902, 72 h, read-out: DIZ
Property: zone of inhibition at 1000 µg/disc (mm)
Respond numerically; units are mm and should not be typed.

Lab note: measured zone of inhibition at 1000 µg/disc of O=C1CCCC2=C1C(c1cccc(Cl)c1)c1ccc3ccccc3c1N2 (stereo not drawn) was 12

Lab note: measured zone of inhibition at 1000 µg/disc of CC1(C)CC(=O)C2=C(C1)Nc1c(ccc3ccccc13)C2c1ccccc1Cl (stereo not drawn) was 8

Lab note: measured zone of inhibition at 1000 µg/disc of CC1(C)CC(=O)C2=C(C1)Nc1c(ccc3ccccc13)C2c1cccc([N+](=O)[O-])c1 (stereo not drawn) was 10
